Minimum inhibitory concentration values for the molecules below.
system: Pseudomonas aeruginosa FADDI-PA01; format: cell-based; settings: FADDI-
Where a SMILES comes first, the peptide text is derived from it. Bridges are numbered along the chain shown (N, C = ends). [ ]: non-standard residue; d: D form. The star is where a group is joined. Benzothiazole(5-carbonyl) = O=C(c1ccc2scnc2c1)*; Nicotinoyl(6-CF3) = O=C(c1ccc(C(F)(F)F)nc1)*; X27 = O=C(c1sc2ccccc2c1Cl)*; Dab = NCC[C@H](N)C(=O)O; Abu = CC[C@H](N)C(=O)O; Dap = NC[C@H](N)C(=O)O
# output: bare number, implied unit µg/mL

Some molecules with known Minimum inhibitory concentration results, for comparison:
- molecule: "CC(C)C[C@H]1NC(=O)[C@H](CCN)NC(=O)[C@@H](NC(=O)[C@H](CN)NC(=O)[C@@H](NC(=O)[C@H](CCN)NC(=O)c2sc3ccccc3c2Cl)[C@@H](C)O)CCNC(=O)[C@H]([C@@H](C)O)NC(=O)[C@H](CCN)NC(=O)[C@H](CCN)NC(=O)[C@H](C)NC1=O [Compound 69] (X27-[Dab]T[Dap][Dab][Dab][dL]A[Dab][Dab]T; lactam 4-C)"
  tgt: "Pseudomonas aeruginosa FADDI-PA01"
  reported: 0.5
- molecule: "CC[C@@H]1NC(=O)[C@@H](CC(C)C)NC(=O)[C@H](CCN)NC(=O)[C@@H](NC(=O)[C@H](CN)NC(=O)[C@@H](NC(=O)[C@H](CCN)NC(=O)c2ccc3scnc3c2)[C@@H](C)O)CCNC(=O)[C@H]([C@@H](C)O)NC(=O)[C@H](CCN)NC(=O)[C@H](CCN)NC1=O [Compound 53] ({Benzothiazole(5-carbonyl)}-[Dab]T[Dap][Dab][Dab][dL][Abu][Dab][Dab]T; lactam 4-C; N-terminus assumed)"
  tgt: "Pseudomonas aeruginosa FADDI-PA01"
  reported: 0.5

Prompt line: Any idea what Minimum inhibitory concentration was measured for CC[C@@H]1NC(=O)[C@@H](CC(C)C)NC(=O)[C@H](CCN)NC(=O)[C@@H](NC(=O)[C@H](CN)NC(=O)[C@@H](NC(=O)[C@H](CCN)NC(=O)c2ccc(C(F)(F)F)nc2)[C@@H](C)O)CCNC(=O)[C@H]([C@@H](C)O)NC(=O)[C@H](CCN)NC(=O)[C@H](CCN)NC1=O [Compound 3] ({Nicotinoyl(6-CF3)}-[Dab]T[Dap][Dab][Dab][dL][Abu][Dab][Dab]T; lactam 4-C) ?
Response line: 0.5
